B1: ZNF232 (parent)
chain: FPKSEQVYLHFLSVVTEDGPEPKD

# Variants of: B1
# Assay overview: protein stability index of a GFP-peptide fusion (GPS, HEK-293T) (PSI 1-6); higher = more stable;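 further: lentivirally expressed fusions sorted by FACS into six bins by GFP to DsRed ratio, PSI derived from sequencing read proportions per bin multiplied by bin number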
# Run parameters: c terminus: a fixed tail appended
Catalogue of protein stability index values

{"Sequence entry": "FPKSEQRYLHFLSVVTEDGPEPKD [V7R]", "protein stability index": 2.49}
{"Sequence entry": "FPKSEQVYLHCLSVVTEDGPEPKD [F11C]", "protein stability index": 1.76}
{"Sequence entry": "FPKSEQVYLHFLSVVTEPGPEPKD [D18P]", "protein stability index": 1.94}
{"Sequence entry": "FPKSEQVYLHFLSVVTENGPEPKD [D18N]", "protein stability index": 1.71}
{"Sequence entry": "FPSSEQVYLHFLSVVTEDGPEPKD [K3S]", "protein stability index": 2.7}
{"Sequence entry": "FPKSEQVYLEFLSVVTEDGPEPKD [H10E]", "protein stability index": 3.46}
{"Sequence entry": "FPKSEQVYLHFLSVVTEDGPEPGD [K23G]", "protein stability index": 1.83}
{"Sequence entry": "FPKSEQVYHHFLSVVTEDGPEPKD [L9H]", "protein stability index": 2.53}
{"Sequence entry": "FPKSEQVYLHFLSVVTEDDPEPKD [G19D]", "protein stability index": 2.06}
{"Sequence entry": "FPKSEQVYLHFLSVVTEDGPEPND [K23N]", "protein stability index": 1.69}
{"Sequence entry": "FPKSEQVYLHFLSVVTERGPEPKD [D18R]", "protein stability index": 1.47}
